Here the recorded MMP2 Inhibition Shift is given for each entry.
Target: T1, human MMP2 (pro-MMP2 activated with APMA) (human, UniProt P08253 30-660)
T1 sequence (looked up): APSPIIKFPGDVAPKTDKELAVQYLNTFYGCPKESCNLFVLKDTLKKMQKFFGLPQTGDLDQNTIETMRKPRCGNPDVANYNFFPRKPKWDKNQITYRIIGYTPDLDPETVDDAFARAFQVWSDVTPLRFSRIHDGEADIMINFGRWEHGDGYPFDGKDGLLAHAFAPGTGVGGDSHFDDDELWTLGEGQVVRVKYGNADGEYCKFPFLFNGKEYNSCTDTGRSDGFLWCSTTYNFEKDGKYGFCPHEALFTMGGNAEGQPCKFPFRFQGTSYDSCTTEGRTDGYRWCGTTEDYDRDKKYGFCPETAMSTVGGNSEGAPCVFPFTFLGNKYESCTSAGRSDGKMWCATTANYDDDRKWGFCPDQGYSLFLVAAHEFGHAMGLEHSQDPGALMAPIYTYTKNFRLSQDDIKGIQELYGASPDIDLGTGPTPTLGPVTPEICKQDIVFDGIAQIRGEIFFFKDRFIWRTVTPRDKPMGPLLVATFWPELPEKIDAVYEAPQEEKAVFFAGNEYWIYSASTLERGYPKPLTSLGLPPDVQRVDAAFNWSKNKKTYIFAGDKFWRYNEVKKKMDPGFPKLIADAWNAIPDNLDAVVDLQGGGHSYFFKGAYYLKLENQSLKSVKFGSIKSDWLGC
Assay: cell-based or functional assay
Give the quantity in fold, number only.

{"columns": ["binder", "MMP2 Inhibition Shift / fold"],
 "data": [
  ["TIMP-3 mutein K45E, F57N, Q126N, R138T, G173T (other) CTCSPSHPQDAFCNSDIVIRAEVVGKKLVKEGPNGTLVYTIKQMKMYRGFTKMPHVQYIHTEASESLCGLKLEVNKYQYLLTGRVYDGKMYTGLCNFVERWDNLTLSQRKGLNYTYHLGCNCKIKSCYYLPCFVTSKNECLWTDMLSNFTYPGYQSKHYACIRQKGGYCSWYRGWAPPDKSIINATDP", 4],
  ["TIMP-3 mutein K45S, F57N, K94N, E96T, D110N, K112T, R138T, G173T (other) CTCSPSHPQDAFCNSDIVIRASVVGKKLVKEGPNGTLVYTIKQMKMYRGFTKMPHVQYIHTEASESLCGLNLTVNKYQYLLTGRVYNGTMYTGLCNFVERWDQLTLSQRKGLNYTYHLGCNCKIKSCYYLPCFVTSKNECLWTDMLSNFTYPGYQSKHYACIRQKGGYCSWYRGWAPPDKSIINATDP", 6]
]}

Below: the item to evaluate.
Recorded MMP2 Inhibition Shift of TIMP-3 mutein K45E, F57N, K94N, E96T, D110N, K112T, R138T (other) CTCSPSHPQDAFCNSDIVIRAEVVGKKLVKEGPNGTLVYTIKQMKMYRGFTKMPHVQYIHTEASESLCGLNLTVNKYQYLLTGRVYNGTMYTGLCNFVERWDQLTLSQRKGLNYTYHLGCNCKIKSCYYLPCFVTSKNECLWTDMLSNFGYPGYQSKHYACIRQKGGYCSWYRGWAPPDKSIINATDP , please.
1
